target: PLK1 (human) (UniProt P53350); experiment: radiometric filter-binding kinase assay; settings: compound 1.0 µM
Sequence (P53350 whole entry, looked up): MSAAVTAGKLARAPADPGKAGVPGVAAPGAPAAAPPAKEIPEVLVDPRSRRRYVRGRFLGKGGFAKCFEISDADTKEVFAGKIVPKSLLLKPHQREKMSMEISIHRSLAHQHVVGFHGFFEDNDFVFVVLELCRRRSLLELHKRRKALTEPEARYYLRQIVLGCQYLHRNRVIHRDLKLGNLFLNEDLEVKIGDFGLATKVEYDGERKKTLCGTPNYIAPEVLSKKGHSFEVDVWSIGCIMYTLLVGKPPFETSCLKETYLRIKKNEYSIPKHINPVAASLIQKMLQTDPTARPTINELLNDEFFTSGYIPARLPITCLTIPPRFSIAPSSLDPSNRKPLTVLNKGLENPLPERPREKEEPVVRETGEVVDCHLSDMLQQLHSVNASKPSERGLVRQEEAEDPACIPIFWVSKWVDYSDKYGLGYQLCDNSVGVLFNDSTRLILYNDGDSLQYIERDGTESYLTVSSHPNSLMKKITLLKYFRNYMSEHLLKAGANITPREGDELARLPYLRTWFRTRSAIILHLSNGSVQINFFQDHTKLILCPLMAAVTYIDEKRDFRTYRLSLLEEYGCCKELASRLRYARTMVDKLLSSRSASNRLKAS
// reported residual activity per item
# unit: % | format: bare number

See these solved cases before continuing.
Value lookup for residual activity; key = `O=C(O)c1cc(N=Nc2ccc(S(=O)(=O)Nc3ccccn3)cc2)ccc1O`
106

Here is the next molecule: `O=C(N[C@@H](COc1ccc2[nH]c(=O)[nH]c2c1)c1ccccc1)c1cccn(Cc2ccc(F)c(F)c2)c1=O`
107

Here is the next molecule: `NC(=O)c1cc(-c2ccnc(NC3CCCCC3)c2)nc(N2CCNCC2)c1`
117

Here is the next molecule: `CCCC(CCC)C(=O)O`
97

Here is the next molecule: CC1=C(CO)C(=O)O[C@@H]([C@@H](C)[C@H]2CC[C@H]3[C@@H]4C[C@H]5O[C@]56[C@@H](O)C=CC(=O)[C@]6(C)C4CC[C@]23C)C1 (stereo not given in full)
101

Next:
Value lookup for residual activity; key = `C=CC(=O)N1CCC[C@@H](n2nc(-c3ccc(Oc4ccccc4)cc3)c3c(N)ncnc32)C1`
95

Here is the next molecule: `Oc1ccc(/C=C/c2cc(O)cc(O)c2)cc1`
90

Here is the next molecule: `O=C(Nc1ccccc1-c1cn2c(CN3CCNCC3)csc2n1)c1cnc2ccccc2n1`
94

Here is the next molecule: Nc1cccc2c1CN(C1CCC(=O)NC1=O)C2=O (stereo not given)
104

Here is the next molecule: C=C1C(=O)OC2C1CC/C(C)=C/CCC1(C)OC21 (stereo not given)
103

###

// reported residual activity per item
target: CDK9 CCNT1 (human) (UniProt P50750+O60563); experiment: radiometric filter-binding kinase assay; conditions: compound 10.0 µM
Sequence (O60563 whole entry, looked up): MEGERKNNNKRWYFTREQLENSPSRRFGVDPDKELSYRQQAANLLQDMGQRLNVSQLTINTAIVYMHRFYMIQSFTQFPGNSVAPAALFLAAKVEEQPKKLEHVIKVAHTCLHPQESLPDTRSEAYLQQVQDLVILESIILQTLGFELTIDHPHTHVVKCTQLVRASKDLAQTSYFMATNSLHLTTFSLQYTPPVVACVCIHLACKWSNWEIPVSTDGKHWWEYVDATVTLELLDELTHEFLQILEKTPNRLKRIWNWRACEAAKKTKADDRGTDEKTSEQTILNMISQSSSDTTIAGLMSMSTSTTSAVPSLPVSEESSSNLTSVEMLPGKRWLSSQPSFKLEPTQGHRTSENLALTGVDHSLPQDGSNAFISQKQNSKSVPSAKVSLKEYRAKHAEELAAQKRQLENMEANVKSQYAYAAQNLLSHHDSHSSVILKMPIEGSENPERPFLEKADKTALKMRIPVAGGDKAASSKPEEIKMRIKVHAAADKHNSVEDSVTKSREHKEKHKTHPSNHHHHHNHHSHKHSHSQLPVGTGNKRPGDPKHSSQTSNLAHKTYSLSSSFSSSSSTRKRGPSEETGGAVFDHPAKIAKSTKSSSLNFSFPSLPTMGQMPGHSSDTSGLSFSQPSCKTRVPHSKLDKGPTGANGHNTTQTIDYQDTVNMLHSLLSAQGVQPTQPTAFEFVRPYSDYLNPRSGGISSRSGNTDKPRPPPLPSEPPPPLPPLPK
Sequence (P50750 whole entry, looked up): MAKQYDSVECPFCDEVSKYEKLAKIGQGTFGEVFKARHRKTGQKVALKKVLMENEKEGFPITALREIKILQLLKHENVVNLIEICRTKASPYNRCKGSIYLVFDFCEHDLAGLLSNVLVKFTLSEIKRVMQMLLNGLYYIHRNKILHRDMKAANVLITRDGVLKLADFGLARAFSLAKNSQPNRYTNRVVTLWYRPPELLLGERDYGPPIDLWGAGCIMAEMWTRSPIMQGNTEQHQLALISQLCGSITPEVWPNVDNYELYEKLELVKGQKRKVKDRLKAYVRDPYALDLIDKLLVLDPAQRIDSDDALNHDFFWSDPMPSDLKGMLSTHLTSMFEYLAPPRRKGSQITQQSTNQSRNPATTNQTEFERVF
# unit: % | format: bare number

Value lookup for residual activity; key = `COc1cc(C(=O)N2CCOCC2)c(F)cc1Nc1ncc(C(F)(F)F)c(NC2CC2)n1`
90

Here is the next molecule: `CCNc1nc(Nc2cc(F)c(C(=O)N3CCOCC3)cc2OC)ncc1C(F)(F)F`
90

Here is the next molecule: CC1=C(CO)C(=O)O[C@@H]([C@@H](C)[C@H]2CC[C@H]3[C@@H]4C[C@H]5O[C@]56[C@@H](O)C=CC(=O)[C@]6(C)C4CC[C@]23C)C1 (some centres undefined)
107

Proceed to the following item.
Value lookup for residual activity; key = `CNc1nc(-c2ccc3c(N)n[nH]c3c2)cc(N2C[C@@H](C(=O)NC3CCCCC3)CC[C@H]2C)n1`
100

###

biological target: IKBKB (human) (UniProt O14920); experiment: radiometric filter-binding kinase assay; settings: compound 1.0 µM
Sequence (O14920 whole entry, looked up): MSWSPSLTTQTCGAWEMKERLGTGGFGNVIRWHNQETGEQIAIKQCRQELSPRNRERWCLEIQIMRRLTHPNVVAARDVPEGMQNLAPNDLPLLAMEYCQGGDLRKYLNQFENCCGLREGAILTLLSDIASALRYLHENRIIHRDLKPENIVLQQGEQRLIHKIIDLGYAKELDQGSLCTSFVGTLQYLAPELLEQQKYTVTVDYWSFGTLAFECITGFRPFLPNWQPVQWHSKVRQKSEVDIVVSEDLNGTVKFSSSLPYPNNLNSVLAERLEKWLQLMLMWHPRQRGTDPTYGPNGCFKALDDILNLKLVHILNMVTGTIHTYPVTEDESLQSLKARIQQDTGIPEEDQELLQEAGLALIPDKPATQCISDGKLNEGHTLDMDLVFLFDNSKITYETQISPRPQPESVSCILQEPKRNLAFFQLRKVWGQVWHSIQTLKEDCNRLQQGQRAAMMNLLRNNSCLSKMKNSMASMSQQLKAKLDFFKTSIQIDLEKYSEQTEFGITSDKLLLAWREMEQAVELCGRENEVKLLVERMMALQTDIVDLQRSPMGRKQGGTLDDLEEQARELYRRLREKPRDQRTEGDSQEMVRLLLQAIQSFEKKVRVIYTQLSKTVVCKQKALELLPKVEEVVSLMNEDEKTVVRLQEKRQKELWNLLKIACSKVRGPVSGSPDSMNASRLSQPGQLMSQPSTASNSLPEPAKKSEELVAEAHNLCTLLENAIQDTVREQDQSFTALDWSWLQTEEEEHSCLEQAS
// reported residual activity per item
# unit: % | format: bare number

Value lookup for residual activity; key = `COc1cc(C(=O)N2CCOCC2)c(F)cc1Nc1ncc(C(F)(F)F)c(NC2CC2)n1`
97

Here is the next compound: `COc1cc2ncn(-c3cc(OCc4ccccc4S(C)(=O)=O)c(C#N)s3)c2cc1OC`
103

Here is the next compound: `Cc1cccc(-c2nn(C(=S)Nc3ccccc3)cc2-c2ccnc3ccccc23)n1`
100

Next:
Value lookup for residual activity; key = `Cc1cc(NC(=O)c2cccc(NC(=O)/C=C/CN(C)C)c2)ccc1Nc1nccc(-c2cccnc2)n1`
74

Here is the next compound: `CN(C)C/C=C/C(=O)Nc1cccc(C(=O)Nc2ccc(Nc3nccc(-c4cccnc4)n3)cc2)c1`
63

Here is the next compound: `CCCCCc1ccc(/C=C/[C@H](O)[C@@H](CO)NC)cc1`
97

Here is the next compound: `NC(=O)c1cc(-c2ccnc(NC3CCCCC3)c2)nc(N2CCNCC2)c1`
50

Here is the next compound: `O=c1c(O)c(-c2ccc(O)c(O)c2)oc2cc(O)c(O)c(O)c12`
100

Here is the next compound: Nc1cccc2c1CN(C1CCC(=O)NC1=O)C2=O (stereo not given)
100

Here is the next compound: `CCCC(CCC)C(=O)O`
86
